- Test system: EKVX NSCLC
- experiment description: NCI-60 one-dose screen, 48 h (100 = growth as untreated, 0 = no growth, -100 = all killed)
- experimental setup: 10 µM unless noted
The panel holds about 83,000 compounds, 20% with a hit somewhere; the sample as a whole holds those more often.
Label Satisfied when growth < 80%; otherwise Not satisfied.

| compound | class name |
| --- | --- |
| CSc1nc(-c2ccc(F)cc2)c(C#N)c(N2CCOCC2)n1 | Not satisfied |
| COc1cc(-c2csc(NC(=O)Nc3cc(Cl)cc(Cl)c3)n2)cc(OC)c1OC | Satisfied |
| CCOC(=O)c1c(C)nc2c(c1N)/C(=C/c1ccc[nH]1)C(=O)N2Cc1ccc(C(F)(F)F)cc1 | Satisfied |
| CC1CCCN(CCCCCOc2ccc3oc4ccccc4c(=O)c3c2)C1 (stereo not given) | Not satisfied |
| COc1ccccc1Nc1nnc(-c2ccc(Cl)cc2)o1 | Satisfied |

The measurements presented in this section are drawn from PubChem BioAssay (NCI).
